These data points were gathered from patent US20250250357A1.

molecular target: T1, human MSLN-R2-his protein (human, UniProt Q13421 391-486); experiment: ELISA, coated MSLN-R2;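 also: chimeric antibodies bound to blocked coated plates for 2 h at 37 °C, TMB colour development stopped with HCl, with a negative control antibody for comparison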
T1 construct: Region 2 of human MSLN, His-tagged; also called human MSLN-R2 protein; hMSLN-R2-his; not shown: His tag
T1 sequence (Q13421 other isoform, or with tags, fused parts or gaps): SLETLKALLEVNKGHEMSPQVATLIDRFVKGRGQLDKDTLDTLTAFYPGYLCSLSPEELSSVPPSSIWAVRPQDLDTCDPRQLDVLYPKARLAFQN
Reported values of OD450 at 10 nM for individual entries
Give the number; OD450 is assumed, so skip it.

S009-F1.2.12 (antibody, human IgG1, kappa, V domains shown) VH: QVQLKQTGPGLVQPSQSLSITCTVSGFSLTNYAVHWVRQSPGKGLEWLGVIWSGGATDYNTVFISRLSISKDNSKSQVFFKVNSLQVDDTAIYYCARTGSGYAMDYWGQGTSVTVSS VL: DIVLTQSPATLSVTPGDRVSLSCRTSHNVNTYLHWYQQKSHESPRLLIKYASQSISEIPSRFSGSGSGTNFTLSINSVETEDFGMYFCHQTNRWPLTFGAGTKLELKR: 0.3
S009-F1.35.24 (antibody, human IgG1, kappa, V domains shown, Human-murine chimeric antibody, human IgG1/kappa constant regions) VH: EVQLQQSEPELVKPGASVRISCKASGYSFTDYYMHWVKQSPENRLEWIGEINPSTGGTSYNPKFKDKATLTVDKSSSTAYMQLKSLTSEESAVYYCTRYHYYGSSSYVMDYWGQGTSVTVSS VL: QIVLTQSPAILSASPGERVTMTCSASSSVYHMHWFQQKSGTSPKRWVYDTSKLASGVPARFSGSGSGTSYSLTISSMEAEDAATYYCQHWRTNPLTFGAGTKLELKR: 0.05
S009-F1.62.9 (antibody, human IgG1, kappa, V domains shown, Human-murine chimeric antibody, human IgG1/kappa constant regions) VH: EVQLQQSGADLVKPGASVKLSCTVFGLNFKDTFMHWVRQRPEQGLEWIGRIDPANDNSIYGPKFQDKATITADTSSNTAYLHLSSLTSEDTAVYYCLYFDNWGHGTTLTVSS VL: DIVMTQAASSEPVTPGESVSISCRSDKSLLHSNGHNYLYWFLQRPGQSPHLLIYRMSNLASGVPDRFSGSGSGTAFTLRISRVEAEDVGVYYCMQHLEYPLTFGAGTKLELKR: 0.05

Task: Look up OD450 at 10 nM: S009-F1.57.1 (antibody, human IgG1, kappa, V domains shown, Human-murine chimeric antibody, human IgG1/kappa constant regions) VH: EAQLQQSGAVFVKPGASVKLSCTASGFSSKDIFLHWVKQRPEQGLEWIGRIDPASDNTIYDPKFQDRATITSDRSSNTAYLQFSSLTSEDTAVYFCLYFDFWGQGTTLTVSS VL: DIVMTQATPSISVTPGESVSISCRSSESLLHSNGNTYLYWFLQRPGQSPQLLIYRMSNLASGVPDRFSVSGSGTAFTLRISRVEAEDVGVYYCMQHLEYPLTFGAGTKLELKR
Output: 0.05
